Test system: Plasmodium falciparum
MEASUREMENT_NOTES: Antiplasmodial activity against blood stage plasmodium falciparum assessed as inhibition of parasite growth
Assay type: functional, organism-based
VALUE_TYPE: IC50 (µM)
Number in µM, nothing else.

Query: Dear colleague, I am looking for the recorded IC50 of the following molecule: CC(C)n1cnc2c(NCc3ccccc3)nc(NCCO)nc21
Response: 130

###

System: HepG2
MEASUREMENT_NOTES: Cytotoxicity against human HepG2 cells assessed as reduction in cell viability at 2 uM measured after 48 hrs by cell titre glo luminescence assay
Format: toxicity, cell-based
EXPERIMENTAL_CONDITIONS: hepg2, 48 h
Rule: cell viability remaining below 60% gives T, anything at or above gives F.

> print(dat)
                              sample.smiles  qualitative.label
1  O=C(c1ccc(Nc2ncc(F)c(-c3cc4ccccc4s3)n2)cc1)N1CCC(N2CCCC2)CC1                  F

Query: For this molecule, is cell viability remaining lower than 60%? O=C(c1ccc(Nc2nccc(-c3ccc(COCC(F)(F)F)s3)n2)cc1)N1CCC(N2CCCC2)CC1
Response: F

Query: Do the same for O=C(c1ccc(Nc2ncc(Br)c(-c3cc4ccccc4s3)n2)cc1)N1CCC(N2CCCC2)CC1 please
Response: T

Query: Do the same for Cc1ccc(-c2nc(Nc3ccc(C(=O)NCCCN4CCOCC4)cc3)ncc2Cl)s1 please
Response: T

###

Tested on: Plasmodium falciparum
MEASUREMENT_NOTES: Antiplasmodial activity against Plasmodium falciparum 3D7 infected in human erythrocytes assessed as reduction in parasite growth incubated for 72 hrs by SYBR green I fluorescence based assay
Type: functional, organism-based
EXPERIMENTAL_CONDITIONS: 3D7, 72 h
Examples of compounds with documented EC50 follow.
Number in nM, nothing else.

Below, each entry is followed by its recorded EC50 result.
> print(dat)
                              sample.smiles  unit.of.measurement  result
1  N#Cc1cnc(Nc2ccc(C(=O)N3CCC(N4CCCC4)CC3)cc2)nc1-c1cc2ccccc2s1                   nM     322
2  O=C(c1ccc(Nc2ncc(C3CC3)c(-c3cc4ccccc4s3)n2)cc1)N1CCC(N2CCCC2)CC1                   nM     646
3  O=C(c1ccc(Nc2ncc(Cl)c(-c3ccc(Cl)s3)n2)cc1)N1CCC(N2CCCC2)CC1                   nM     552
4  O=C(NCCCN1CCOCC1)c1ccc(Nc2ncc(Cl)c(-c3ccc(Cl)s3)n2)cc1                   nM    1400
5  O=C(c1ccc(Nc2ncc(Br)c(-c3cc4ccccc4s3)n2)cc1)N1CCC(N2CCCC2)CC1                   nM     300

Next item in the queue.
Query: Dear colleague, I am looking for the recorded EC50 of the following compound: O=C(c1ccc(Nc2nccc(-c3ccc(COCC(F)(F)F)s3)n2)cc1)N1CCC(N2CCCC2)CC1
Response: 810
